MEASURED_TARGET: Human immunodeficiency virus type 1 reverse transcriptase (Human immunodeficiency virus 1, UniProt Q72547)
RUN_DESCRIPTION: Inhibition of RNA-dependent DNA polymerase activity of Human immunodeficiency virus 1 recombinant reverse transcriptase expressed in Escherichia coli using poly(rA)oligo(dT) template primer after 30 min
ASSAY_METRIC: IC50 (µM)

Worked cases, IC50 given:
# COMPOUND, OBS_VALUE
data = [
    ("CC(=O)N1C(=O)C(O)(C(F)(F)F)c2cc(Cl)ccc21 (stereo not given)", 3.41),
    ("O=C1Nc2ccc(Cl)cc2C1(O)C(F)(F)F (stereo not given)", 7.1),
    ("CC(=O)N1C(=O)C(O)(C(F)(F)F)c2cc(C)ccc21 (stereo not given)", 8.37),
]

1 = O=C1Nc2ccccc2C1(O)C(F)(F)F (stereo not given)
2 = CN1C(=O)C(O)(C(F)(F)F)c2cc(Br)ccc21 (stereo not given)
Task: Please compare: 1 and 2 . Report which one has the smaller IC50 value. Lab note: record the label of whichever item you select.
Result: 2
(2: 3.61 µM, 1: 6.07 µM)
